SYSTEM: menin/MLL (terbium chelate-labeled menin, FITC-MBM1 peptide) (Homo sapiens, UniProt O00255, T541A)
Construct: Menin (a.a 1-610-6xhis tag, 2.3 mg/mL in 20 mM Hepes)
Sequence (O00255 with tags, fused parts or gaps T541A): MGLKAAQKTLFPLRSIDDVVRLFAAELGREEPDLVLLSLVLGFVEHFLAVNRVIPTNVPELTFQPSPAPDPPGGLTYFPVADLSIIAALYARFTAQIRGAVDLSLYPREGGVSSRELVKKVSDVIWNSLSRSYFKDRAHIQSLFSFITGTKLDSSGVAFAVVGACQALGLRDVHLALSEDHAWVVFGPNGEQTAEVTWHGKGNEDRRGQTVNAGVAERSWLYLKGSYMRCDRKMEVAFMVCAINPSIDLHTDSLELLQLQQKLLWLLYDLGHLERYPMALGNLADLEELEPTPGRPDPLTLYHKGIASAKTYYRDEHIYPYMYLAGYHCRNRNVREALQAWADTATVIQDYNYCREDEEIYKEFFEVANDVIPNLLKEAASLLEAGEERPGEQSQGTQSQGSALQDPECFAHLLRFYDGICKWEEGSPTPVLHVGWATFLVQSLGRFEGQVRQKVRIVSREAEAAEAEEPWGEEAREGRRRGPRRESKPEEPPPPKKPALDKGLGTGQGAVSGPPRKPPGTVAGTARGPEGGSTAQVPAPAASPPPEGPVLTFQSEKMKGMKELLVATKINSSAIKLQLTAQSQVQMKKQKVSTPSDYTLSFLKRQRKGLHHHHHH
METHOD_SUMMARY: Menin/MLL homogenous time-resolved fluorescence (HTRF) assay
MEASUREMENT_CONTEXT: 30 min incubation
Task for the reader: assign each of the following molecules its reported pIC50.
Give bare numbers, as −log10 of the molar value.

MOLECULE: Cc1cncc2c1c(CC1CCN(CC3CCN(C(=O)[C@@H](C)O)CC3)C1)cn2-c1ccc(F)cc1C(=O)N(C)C(C)C (single isomer, unassigned) [Compound 85]
pIC50: 9.95

MOLECULE: Cc1cncc2c1c(C[C@@H]1CCN(C[C@@H]3CCNC(=O)CC3)C1)cn2-c1ccc(F)cc1C(=O)N1[C@H](C)CC[C@H]1C (single isomer, unassigned) [Compound 352b]
pIC50: 9.61

MOLECULE: Cc1cncc2c1c(CC1CN(CC3(C)CCN(C(N)=O)CC3)C1)cn2-c1ccc(F)cc1C(=O)N(C)C(C)C [Compound 219]
pIC50: 10.41

MOLECULE: Cc1cncc2c1c(C[C@@H]1CCN([C@@H]3CCNC(=O)CC3)C1)cn2-c1ccc(F)cc1C(=O)N(C)C(C)C (single isomer, unassigned) [Compound 139b]
pIC50: 10.06

MOLECULE: CC(=O)N1C[C@@H]2CN(CCC[C@H](C(C)C)N3CC[C@@H](Cc4cn(-c5ccc(F)cc5C(=O)N(C)C(C)C)c5cncc(Cl)c45)C3)C[C@H]2C1 (single isomer, unassigned) [Compound 18a]
pIC50: 10.72

Quick one: give me pIC50 for each item below, same order please.
1. Cc1cncc2c1c(C[C@@H]1CCN(CC3CCN(C(=O)C(C)(C)O)CC3)C1)cn2-c1ccc(F)cc1C(=O)N1[C@H](C)CC[C@H]1C [Compound 343]
2. Cc1cncc2c1c(C[C@@H]1CCN(CC3CCC(O)CC3)C1)cn2-c1ccc(F)cc1C(=O)N(C)C(C)C (single isomer, unassigned) [Compound 205b]

[out]
[10.35, 10.46]

Quick one: give me pIC50 for each item below, same order please.
1. CC(=O)N1CCN(CCC[C@H](C(C)C)N2CC[C@@H](Cc3cn(-c4ccc(F)cc4C(=O)N(C)C(C)C)c4cncc(C)c34)C2)CC1 (single isomer, unassigned) [Compound 8a]
2. Cc1cncc2c1c(CC1CN(C[C@H]3CC[C@H](C(=O)NCCC#N)CC3)C1)cn2-c1ccc(F)cc1C(=O)N(C)C(C)C [Compound 155]
3. COCCN(C)CCC[C@@H](C(C)C)N1CC[C@H](Cc2cn(-c3ccc(F)cc3C(=O)N(C)C(C)C)c3cncc(Cl)c23)C1 (single isomer, unassigned) [Compound 4b]
4. COCCN(C)CCC[C@H](C(C)C)N1CC[C@H](Cc2cn(-c3ccc(F)cc3C(=O)N(C)C(C)C)c3cncc(Cl)c23)C1 (single isomer, unassigned) [Compound 4a]

[out]
[10.62, 10.29, 10.03, 9.52]
